Quick reference: Potency of the listed items.
target: Thyrotropin receptor (Homo sapiens); assay: qHTS for antagonists of the Thyroid Stimulation Hormone Receptor: Hit Validation in Primary Screen; settings: TSHR-expressing cells, cAMP antagonist mode; series mostly up to 58 µM; also: potency is read from the fitted curve at half-maximal effect; nearly all actives have a fitted effect of over 80% in size
About 380 (29%) of roughly 1,300 compounds were called active. Not shown: some 37% with an inconclusive outcome. This is one part of the list.

Example results:
CCC(=O)OCCNc1cc(Sc2nccn2C)c2nonc2c1[N+](=O)[O-] = 19 µM (active)
CCCC(=O)OCCNc1cc(Sc2nc3ccccc3[nH]2)c2nonc2c1[N+](=O)[O-] = 23.9 µM (active)
COc1ccc(/C=N/NC(=O)c2ccoc2C)cc1COc1c(C)cccc1C = 12 µM (active)
Cc1cc(C(=O)CSc2nc3ccccc3[nH]2)c(C)n1CC1CCCO1 (stereo not given) = 21.3 µM (active)

# evaluate next
For reference, reported Potency for `CC(=O)OCCNc1cc(Sc2nc3ccccc3[nH]2)c2nonc2c1[N+](=O)[O-]` stands at 26.9 µM (active)

All figures here come from PubChem BioAssay AID602292.
